Before we begin, note that these IC50 values for Interstitial collagenase (Homo sapiens) originate from several publications.

Take a look at these entries with their results.
O=C(O[C@H]1CCOC1)N1CCC(CS(=O)(=O)N2CCC(c3ccccc3F)CC2)(C(=O)NO)CC1	> 5 µM
CNC(=O)[C@H](Cc1c[nH]c2ccccc12)NC(=O)[C@@H](CC(=O)c1ccccn1)CC(C)C	0.73 µM

Proceeding to the next molecule to report its IC50.
Lookup: Requested read-out: IC50. Entry: CCCNC(=O)CC[C@H](NS(=O)(=O)c1ccc(-c2ccccc2)cc1)C(=O)O
Found: > 10 µM

----------
System Under Test: UniProtKB P03956
Sequence (P03956 whole entry): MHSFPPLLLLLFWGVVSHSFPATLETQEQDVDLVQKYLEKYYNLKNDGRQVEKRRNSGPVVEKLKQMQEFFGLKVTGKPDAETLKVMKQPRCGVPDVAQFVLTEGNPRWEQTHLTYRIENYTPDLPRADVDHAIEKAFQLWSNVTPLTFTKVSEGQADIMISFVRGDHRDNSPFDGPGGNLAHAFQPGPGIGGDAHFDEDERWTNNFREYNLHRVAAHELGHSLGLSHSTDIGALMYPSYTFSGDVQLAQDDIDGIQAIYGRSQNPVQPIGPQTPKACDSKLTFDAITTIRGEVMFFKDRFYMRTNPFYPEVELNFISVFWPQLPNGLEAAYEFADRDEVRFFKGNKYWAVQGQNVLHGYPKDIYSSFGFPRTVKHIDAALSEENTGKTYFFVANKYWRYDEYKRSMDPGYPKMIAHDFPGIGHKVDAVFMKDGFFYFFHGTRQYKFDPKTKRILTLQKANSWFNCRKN
pIC50: −log10 of the molar value.
Before we begin, note that these pIC50 values for UniProtKB P03956 originate from several publications.

CCCCC[C@H](CC(=O)NO)C(=O)N[C@H](C(=O)N1CCC[C@H]1CO)C(C)C	5.96
O=C(Nc1ccc(S(=O)(=O)N[C@H](Cc2c[nH]c3ccccc23)C(=O)O)cc1)c1ccc(F)nc1	< 6.00
O=C1[C@H](CS(=O)(=O)c2ccc(Oc3ccccc3)cc2)NCCCN1O	< 6.00

Proceeding to the next molecule to report its pIC50.
Lookup: Requested read-out: pIC50. Entry: c1cncc(Cc2nnn[nH]2)c1
Found: < 3.82
